- TARGET: UniProt Q8NTA6
- Sequence (Q8NTA6 1-418): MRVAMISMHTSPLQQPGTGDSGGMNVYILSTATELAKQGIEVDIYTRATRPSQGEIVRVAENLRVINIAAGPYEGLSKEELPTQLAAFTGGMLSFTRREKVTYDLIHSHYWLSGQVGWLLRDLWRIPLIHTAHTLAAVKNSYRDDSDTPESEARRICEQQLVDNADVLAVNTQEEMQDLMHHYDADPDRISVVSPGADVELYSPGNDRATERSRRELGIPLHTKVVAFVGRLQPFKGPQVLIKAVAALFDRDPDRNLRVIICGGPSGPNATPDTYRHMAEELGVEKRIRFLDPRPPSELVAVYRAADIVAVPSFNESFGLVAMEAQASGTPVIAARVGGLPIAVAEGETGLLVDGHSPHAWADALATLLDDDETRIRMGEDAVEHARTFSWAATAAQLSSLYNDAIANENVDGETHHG
MEASURED METRIC: Ki
The answer consists of two parts: a number and, after it, its unit.

Request: For "CC(=O)N[C@H]1[C@@H](OP(=O)(O)OP(=O)(O)OC[C@H]2O[C@@H](n3ccc(=O)[nH]c3=O)[C@H](O)[C@@H]2O)O[C@](F)(CO)[C@@H](O)[C@@H]1O" , what is its reported Ki?
Result: 1400 nM
